Data credit: patent US20190062438A1

SYSTEM_UNDER_TEST: T1, human CD131 (human, UniProt P32927 17-897)
T1 sequence: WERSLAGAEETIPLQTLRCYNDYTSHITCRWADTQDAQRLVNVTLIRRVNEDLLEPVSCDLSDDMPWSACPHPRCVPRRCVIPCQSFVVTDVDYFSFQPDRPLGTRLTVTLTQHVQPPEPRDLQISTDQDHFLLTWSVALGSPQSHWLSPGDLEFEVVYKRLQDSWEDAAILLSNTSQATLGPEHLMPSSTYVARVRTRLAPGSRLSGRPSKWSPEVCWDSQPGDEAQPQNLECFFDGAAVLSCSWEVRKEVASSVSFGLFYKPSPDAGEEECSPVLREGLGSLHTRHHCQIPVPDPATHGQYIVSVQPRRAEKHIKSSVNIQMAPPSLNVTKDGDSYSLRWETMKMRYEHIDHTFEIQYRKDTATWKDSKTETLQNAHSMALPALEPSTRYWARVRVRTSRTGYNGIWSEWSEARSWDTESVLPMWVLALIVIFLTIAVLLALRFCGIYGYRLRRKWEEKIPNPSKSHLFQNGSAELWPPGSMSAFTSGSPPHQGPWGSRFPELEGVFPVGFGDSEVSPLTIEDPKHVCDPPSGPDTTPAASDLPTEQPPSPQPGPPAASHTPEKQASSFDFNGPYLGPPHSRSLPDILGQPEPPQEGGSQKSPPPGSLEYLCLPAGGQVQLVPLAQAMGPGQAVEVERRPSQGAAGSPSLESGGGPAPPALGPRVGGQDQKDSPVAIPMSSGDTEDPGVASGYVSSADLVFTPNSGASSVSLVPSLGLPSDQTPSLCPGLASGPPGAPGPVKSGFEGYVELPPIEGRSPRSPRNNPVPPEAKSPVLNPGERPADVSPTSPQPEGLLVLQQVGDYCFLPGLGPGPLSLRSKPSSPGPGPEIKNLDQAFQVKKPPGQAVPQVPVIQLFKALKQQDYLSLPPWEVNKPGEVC
ASSAY_INFO: cell-based or functional assay
The reader will find reported IC50 GM-CSF, TF-1 proliferation values listed item by item below.

Use the examples below as a reference point.
>>> readout_value("9A2-VR24.84 (antibody, V domains shown) VH: EVQLLESGGGLVQPGGSLRLSCAASGFTFPWYRVHWVRQAPGKGLEWVSSIHTHRPWTYYADSVKGRFTISRDNSKNTLYLQMNSLRAEDTAVYYCARFYDSFFDIWGQGTMVTVSS VL: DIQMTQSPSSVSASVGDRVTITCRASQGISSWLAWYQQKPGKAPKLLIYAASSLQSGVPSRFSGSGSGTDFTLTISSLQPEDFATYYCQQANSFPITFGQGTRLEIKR")
"210 pM"
>>> readout_value("9A2-VR24.55 (antibody, V domains shown) VH: EVQLLESGGGLVQPGGSLRLSCAASGFTFPWYRVHWVRQAPGKGLEWVSSIRSSGGFTYYNPSVKNRFTISRDNSKNTLYLQMNSLRAEDTAVYYCARFYDSFFDIWGQGTMVTVSS VL: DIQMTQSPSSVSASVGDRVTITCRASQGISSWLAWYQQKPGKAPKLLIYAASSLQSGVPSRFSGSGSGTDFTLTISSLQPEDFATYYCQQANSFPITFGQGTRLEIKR")
"600 pM"
>>> readout_value("9A2-VR24.33 (antibody, V domains shown) VH: EVQLLESGGGLVQPGGSLRLSCAASGFTFPWYRVHWVRQAPGKGLEWVSSIRSSGGFPYYNHKVKGRFTISRDNSKNTLYLQMNSLRAEDTAVYYCARFYDSFFDIWGQGTMVTVSS VL: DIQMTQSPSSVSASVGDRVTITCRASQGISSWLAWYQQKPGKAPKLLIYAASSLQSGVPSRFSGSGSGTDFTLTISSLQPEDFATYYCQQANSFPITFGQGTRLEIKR")
"340 pM"
>>> readout_value("9A2-VR39.111 (antibody, V domains shown) VH: EVQLLESGGGLVQPGGSLRLSCAASGFTFPWFHFVWVRQAPGKGLEWVSSINGRGRVTYYADSVKGRFTISRDNSKNTLYLQMNSLRAEDTAVYYCARFYDSFFDIWGQGTMVTVSS VL: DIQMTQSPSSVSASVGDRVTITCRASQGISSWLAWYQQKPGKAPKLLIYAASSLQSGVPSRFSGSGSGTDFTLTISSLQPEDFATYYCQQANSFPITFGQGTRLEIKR")
"990 pM"

Here is another binder to look at.
Record 9A2-VR39.93 (antibody, V domains shown) VH: EVQLLESGGGLVQPGGSLRLSCAASGFTFSHYHMLWVRQAPGKGLEWVSSINGRGRVTYYNPAWKKRFTISRDNSKNTLYLQMNSLRAEDTAVYYCARFYDSFFDIWGQGTMVTVSS VL: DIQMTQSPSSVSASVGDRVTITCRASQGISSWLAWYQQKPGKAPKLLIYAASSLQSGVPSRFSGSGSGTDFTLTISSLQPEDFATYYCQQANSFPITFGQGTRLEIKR , field IC50 GM-CSF, TF-1 proliferation: 280 pM
